Listing of entries alongside the reported Plant response rating (0 to 100 scale), Surinam Grass.
# Tested on: Surinam grass
# assay explanation: Test B pre-/postemergence herbicide test
# Type: in vivo, Urochloa decumbens
# experimental parameters: 125 g ai/ha; 0 is no effect, 100 is complete control; preemergence
# Procedure: […] At the same time, plants selected from these crop and weed species and also blackgrass (Alopecurus myosuroides Huds.), wheat (Triticum aestivum L.) and wild oat (Avena fatua L.) were treated with postemergence applications of test chemicals formulated in the same manner. […] Treated plants and controls were maintained in a greenhouse for 13 to 15 days, after which time all species were compared to controls and visually evaluated. […]
Lab note: record the figure alone, no unit after it.

{"columns": ["entry smiles", "readout value"],
 "data": [
  ["CCNC(=O)c1ccc(F)c(N(C(C)=O)C(=O)c2cc(C(C)(C)C)nn2CC)c1", 90],
  ["CCc1nn(C(C)C)nc1C(=O)Nc1cccc(C(=O)N(C)C)c1", 50],
  ["CCc1nn(C(C)(C)C)nc1C(=O)Nc1cc(C(=O)N(C)CC)ccc1F", 20],
  ["COC(=O)c1ccc(F)c(NC(=O)c2nn(C(C)C)nc2C)c1", 0],
  ["C=CCN(CC=C)C(=O)c1cccc(NC(=O)c2nn(C(C)C)nc2CC)c1", 0],
  ["C=CCN(CC=C)C(=O)c1ccc(F)c(NC(=O)c2cc(C(C)(C)C)nn2CC)c1", 10],
  ["CCOc1ccc(F)c(NC(=O)c2cc(C(C)(C)C)nn2CC)c1", 0],
  ["C=CCOc1cccc(NC(=O)c2cc(C(C)(C)C)nn2CC)c1", 0]
]}

Next:
Q) Quick one: give measured Plant response rating (0 to 100 scale), Surinam Grass for C#CCNC(=O)c1cccc(NC(=O)c2nn(C(C)(C)C)nc2CC)c1
A) 40

###

# Tested on: johnsongrass
# assay explanation: Test C pre-/postemergence herbicide test
# Format: in vivo, Sorghum halepense
# experimental parameters: Preemergence, 500 g ai/ha; scale 0 to 100, 0 no effect, 100 complete control
# Text: […]
Recorded measurements of Johnsongrass plant response rating, one per entry
# print the numeric value only

Q) Return value of Johnsongrass plant response rating for input C=CCNC(=O)c1cccc(NC(=O)c2sc(C(C)(C)C)nc2C)c1 , no commentary.
A) 75

Q) Give Johnsongrass plant response rating for CCCn1nc(C(C)(C)C)cc1C(=O)Nc1cccc(C(=O)NCC)c1
A) 85

Q) Please supply the value of reported Johnsongrass plant response rating for the item CCn1nc(C(C)(C)C)cc1C(=O)Nc1cc(C#N)ccc1F
A) 75

Q) Dear colleague, please send me the reported Johnsongrass plant response rating for CCn1nc(C(C)(C)C)cc1C(=O)Nc1cc(C(=O)N(C)C)ccc1F when you can.
A) 100

Q) Provide Johnsongrass plant response rating value for the following compound: CCc1nn(C(C)(C)C)cc1C(=O)Nc1cccc(C(C)=NO)c1
A) 75

###

# System: woolly cupgrass
# assay explanation: Test C pre-/postemergence herbicide test
# Type: in vivo, Eriochloa villosa
# experimental parameters: 62 g ai/ha; preemergence
measurement name: Plant response rating (0 = no effect, 100 = complete control), Cupgrass, Woolly
Could you keep your reply to the number by itself?

For orientation, consider the following solved cases.
{"columns": ["entry smiles", "readout value"],
 "data": [
  ["CCn1nc(C(C)(C)C)cc1C(=O)Nc1ccc(F)c(C(=O)NCCF)c1", 0],
  ["CCC(=NO)c1cccc(NC(=O)c2cc(C(C)(C)C)nn2C)c1", 0]
]}

Q) For woolly cupgrass, give the measured Plant response rating (0 = no effect, 100 = complete control), Cupgrass, Woolly of the entry CCn1nc(C(C)(C)C)cc1C(=O)Nc1cccc(C(=O)NC2CC2)n1
A) 0

Q) Report Plant response rating (0 = no effect, 100 = complete control), Cupgrass, Woolly from woolly cupgrass testing of CCn1nc(C(C)(C)C)cc1C(=O)Nc1cccc(C#N)c1
A) 0
